Assay: Pharmacokinetics in mice, single dose i.v. injection or oral gavage (FIG. 5)
Format: in vivo
Settings: mouse, plasma, iv; mice; 1 mg/kg i.v.; read-out: VSS, i.v.
recorded_metric: Vd (L/kg)
Write the value in L/kg as a bare number.

Name the recorded Vd for CNc1ccc(C(=O)Nc2ccc(N(C)C)nn2)c(NC2CC3(CC(NC(=O)CN4CCN(c5ccc(Nc6ncc7c(C)c(C(C)=O)c(=O)n(C8CCCC8)c7n6)nc5)CC4)C3)C2)n1 (stereo not shown) .
1.6

---

Target: CDK4 (Homo sapiens, UniProt P11802+Q16531)
Sequence (P11802 2-303 limits assumed): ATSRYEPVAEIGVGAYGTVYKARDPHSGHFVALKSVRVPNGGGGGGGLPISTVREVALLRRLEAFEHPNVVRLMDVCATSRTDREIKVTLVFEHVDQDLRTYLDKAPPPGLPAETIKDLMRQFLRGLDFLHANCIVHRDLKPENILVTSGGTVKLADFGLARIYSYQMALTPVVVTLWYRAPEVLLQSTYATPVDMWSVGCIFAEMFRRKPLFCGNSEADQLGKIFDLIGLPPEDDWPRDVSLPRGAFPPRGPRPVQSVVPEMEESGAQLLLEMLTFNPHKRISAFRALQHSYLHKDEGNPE
Sequence (P24385 whole entry partner): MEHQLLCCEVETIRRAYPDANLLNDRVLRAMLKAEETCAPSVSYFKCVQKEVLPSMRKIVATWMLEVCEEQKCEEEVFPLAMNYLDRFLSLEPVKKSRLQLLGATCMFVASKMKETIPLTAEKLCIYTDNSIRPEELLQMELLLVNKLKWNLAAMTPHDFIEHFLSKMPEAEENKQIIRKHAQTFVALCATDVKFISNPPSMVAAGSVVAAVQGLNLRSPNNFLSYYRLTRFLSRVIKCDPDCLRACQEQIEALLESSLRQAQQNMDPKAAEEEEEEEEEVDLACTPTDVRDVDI
Sequence (Q16531 2-1140 limits assumed): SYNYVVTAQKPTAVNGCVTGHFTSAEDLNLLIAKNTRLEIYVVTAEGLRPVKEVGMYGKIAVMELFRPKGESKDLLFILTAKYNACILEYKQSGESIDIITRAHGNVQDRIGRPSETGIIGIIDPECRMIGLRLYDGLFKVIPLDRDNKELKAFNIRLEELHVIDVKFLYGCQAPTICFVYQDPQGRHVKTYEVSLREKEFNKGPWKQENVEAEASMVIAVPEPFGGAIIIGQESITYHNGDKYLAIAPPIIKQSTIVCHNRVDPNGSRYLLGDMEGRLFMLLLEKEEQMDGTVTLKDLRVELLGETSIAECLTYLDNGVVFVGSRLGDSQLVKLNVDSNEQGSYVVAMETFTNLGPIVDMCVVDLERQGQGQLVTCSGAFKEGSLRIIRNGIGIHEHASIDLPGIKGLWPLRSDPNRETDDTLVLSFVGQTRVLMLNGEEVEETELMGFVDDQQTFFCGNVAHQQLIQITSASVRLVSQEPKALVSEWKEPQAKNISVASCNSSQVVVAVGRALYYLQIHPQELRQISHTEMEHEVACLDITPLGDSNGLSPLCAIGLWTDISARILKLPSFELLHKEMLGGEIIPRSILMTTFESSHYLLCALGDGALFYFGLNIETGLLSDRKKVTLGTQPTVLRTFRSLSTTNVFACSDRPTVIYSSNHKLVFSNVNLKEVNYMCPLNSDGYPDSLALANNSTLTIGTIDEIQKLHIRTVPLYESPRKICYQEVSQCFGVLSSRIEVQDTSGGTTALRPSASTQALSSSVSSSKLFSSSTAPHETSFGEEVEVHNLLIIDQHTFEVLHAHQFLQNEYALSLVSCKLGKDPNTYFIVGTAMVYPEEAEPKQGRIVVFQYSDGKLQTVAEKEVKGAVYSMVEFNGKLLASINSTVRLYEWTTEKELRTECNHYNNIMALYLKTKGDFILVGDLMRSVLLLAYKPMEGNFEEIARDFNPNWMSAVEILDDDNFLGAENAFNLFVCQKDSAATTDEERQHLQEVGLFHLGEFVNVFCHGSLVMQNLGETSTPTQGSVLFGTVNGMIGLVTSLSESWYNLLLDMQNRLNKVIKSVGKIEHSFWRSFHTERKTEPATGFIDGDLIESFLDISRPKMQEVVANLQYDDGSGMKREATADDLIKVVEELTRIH
Test: CDK4 percentage degradation in Calu-1 cells (Table 6)
Format: cell-based
Parameters: Cells that express cyclin D1-3 and CDK4/6 proteins were treated with heterobifunctional compounds; endogenous in cells; host or cells: Calu-1
Settings: 200 nM, 16 hours
Listed next: entries and their corresponding inhibition at 0.2 µM.

Guide cases for inhibition at 0.2 µM, answers given:
compound	inhibition at 0.2 µM
[2H]C([2H])([2H])Nc1ccc(C(=O)Nc2cccc(C)n2)c(NC2CC3(C2)CC(OC(C)(C)C(=O)N2CCN(c4ccc(Nc5ncc6c(C)c(C(C)=O)c(=O)n(C7CCCC7)c6n5)nc4)CC2)C3)n1 (centres unmarked)	30 to 50%
CNc1ccc(C(=O)Nc2ccn(C)n2)c(NC2CC3(CC(NC(=O)CN4CCN(c5ccc(Nc6ncc7c(C)c(C(C)=O)c(=O)n(C8CCCC8)c7n6)nc5)CC4)C3)C2)n1 (centres unmarked)	50 to 80%
CNc1ccc(C(=O)Nc2cc(C)n(C)n2)c(NC2CC(NC(=O)CN3CCN(c4ccc(Nc5ncc6c(C)c(C(C)=O)c(=O)n(C7CCCC7)c6n5)nc4)CC3)C2)n1 (centres unmarked)	30 to 50%
CNc1ccc(C(=O)Nc2ccc(N(C)C)nn2)c(Nc2cc(CCNC(=O)CN3CCN(c4ccc(Nc5ncc6c(C)c(C(C)=O)c(=O)n(C7CCCC7)c6n5)nc4)CC3)no2)n1	50 to 80%

Now for a further compound.
Recall the recorded inhibition at 0.2 µM for CC(=O)c1c(C)c2cnc(Nc3ccc(N4CCN(CCC(=O)N5CC6(CC(Nc7nc(NC(C)C)ccc7C(=O)Nc7ccc(N(C)C)nn7)C6)C5)CC4)cn3)nc2n(C2CCCC2)c1=O with CDK4 (Homo sapiens, UniProt P11802+Q16531) and state it.
30 to 50%
